Molecular target: integrin α4β7 (RPMI8866 human cells adhering to MAdCAM-1) (Homo sapiens, UniProt P13612+P26010)
Construct: RMP18866 cells, which express integrin α4β7; host or cells: RPMI8866
Sequence (P13612 34-1032): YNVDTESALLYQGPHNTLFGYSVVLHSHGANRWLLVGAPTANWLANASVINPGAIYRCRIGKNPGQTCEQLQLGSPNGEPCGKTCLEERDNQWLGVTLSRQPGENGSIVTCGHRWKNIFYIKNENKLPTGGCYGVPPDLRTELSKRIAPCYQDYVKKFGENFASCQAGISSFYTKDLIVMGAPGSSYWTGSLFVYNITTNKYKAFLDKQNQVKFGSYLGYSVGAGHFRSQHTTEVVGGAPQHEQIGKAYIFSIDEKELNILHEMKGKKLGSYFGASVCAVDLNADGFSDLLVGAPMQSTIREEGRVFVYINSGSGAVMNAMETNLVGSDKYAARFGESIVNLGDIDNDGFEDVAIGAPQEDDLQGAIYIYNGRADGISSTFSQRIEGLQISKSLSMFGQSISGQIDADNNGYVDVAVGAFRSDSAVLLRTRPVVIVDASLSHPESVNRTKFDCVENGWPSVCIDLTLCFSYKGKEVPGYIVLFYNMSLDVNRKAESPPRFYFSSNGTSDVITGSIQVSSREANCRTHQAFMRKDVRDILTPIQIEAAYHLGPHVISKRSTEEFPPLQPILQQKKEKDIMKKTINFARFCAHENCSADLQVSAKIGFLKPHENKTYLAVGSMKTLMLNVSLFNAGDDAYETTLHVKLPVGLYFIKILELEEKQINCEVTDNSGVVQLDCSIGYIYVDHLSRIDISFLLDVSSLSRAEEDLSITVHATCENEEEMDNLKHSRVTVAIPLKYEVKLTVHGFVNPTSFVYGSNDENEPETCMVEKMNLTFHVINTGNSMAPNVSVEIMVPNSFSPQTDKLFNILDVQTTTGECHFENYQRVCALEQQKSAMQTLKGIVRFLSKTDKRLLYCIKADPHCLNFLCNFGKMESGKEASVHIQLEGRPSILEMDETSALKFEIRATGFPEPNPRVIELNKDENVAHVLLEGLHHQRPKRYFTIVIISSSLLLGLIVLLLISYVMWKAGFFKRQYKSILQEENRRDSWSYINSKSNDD
Sequence (P26010 20-798): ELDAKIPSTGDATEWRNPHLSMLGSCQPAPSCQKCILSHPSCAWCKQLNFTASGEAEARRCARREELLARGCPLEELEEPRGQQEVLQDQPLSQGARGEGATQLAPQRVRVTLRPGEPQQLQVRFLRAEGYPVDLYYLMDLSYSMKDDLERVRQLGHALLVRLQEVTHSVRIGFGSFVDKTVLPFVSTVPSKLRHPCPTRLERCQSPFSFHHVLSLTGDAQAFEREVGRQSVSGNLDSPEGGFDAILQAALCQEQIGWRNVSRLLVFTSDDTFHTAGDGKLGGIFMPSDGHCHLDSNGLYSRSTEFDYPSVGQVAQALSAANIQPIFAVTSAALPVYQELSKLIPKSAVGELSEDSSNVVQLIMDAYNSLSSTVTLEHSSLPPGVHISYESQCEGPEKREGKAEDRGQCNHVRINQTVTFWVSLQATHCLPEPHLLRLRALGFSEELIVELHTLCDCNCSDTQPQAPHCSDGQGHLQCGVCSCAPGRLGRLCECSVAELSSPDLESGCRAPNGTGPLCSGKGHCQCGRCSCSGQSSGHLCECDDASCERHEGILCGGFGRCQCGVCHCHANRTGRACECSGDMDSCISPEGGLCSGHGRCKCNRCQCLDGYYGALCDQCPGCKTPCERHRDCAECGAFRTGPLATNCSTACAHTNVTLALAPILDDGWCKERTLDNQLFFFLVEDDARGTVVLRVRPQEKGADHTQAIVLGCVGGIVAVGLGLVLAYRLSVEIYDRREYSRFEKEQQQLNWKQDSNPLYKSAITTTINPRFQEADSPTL
Assay: Integrin α4β7-MAdCAM cell adhesion assay (RPMI8866 cells)
Type: cell-based
Settings: RPMI8866 cells adhering to MAdCAM; read-out: RPMI8866 Adhesion α4β7/MAdCAM IC50
Experimental Readout: IC50 (nM)
Numbers only, in nM.

Q) Find the recorded IC50 belonging to CC(C)C[C@@H]1NC(=O)c2ccc(-c3ccc(N4CCN(C(=O)c5cc6ccccc6c(Cc6c(O)c(C(=O)N7CCN(c8ccc(-c9ccc%10cc9CNC(=O)[C@@H]9CCCN9[C@H](C(=O)NC(C)(C)C)[C@H](C)NC(=O)[C@H]([C@@H](C)O)NC(=O)[C@H](CC(=O)O)NC(=O)[C@H](CC(C)C)NC%10=O)cc8)CC7)cc7ccccc67)c5O)CC4)cc3)c(c2)CNC(=O)[C@@H]2CCCN2[C@H](C(=O)NC(C)(C)C)[C@H](C)NC(=O)[C@H]([C@@H](C)O)NC(=O)[C@H](CC(=O)O)NC1=O and report it.
A) 102
